Test system: TK-10 renal
run_description: NCI tumour cell line growth inhibition, 48 h
Each entry below lists one item and its recorded TGI value.

Below: 10 compounds and their reported TGI.
{"compound": "C=C(COC(C)=O)CC(/C=C(\\C)CC/C=C(\\C)CO)OC(C)=O (configuration not stated)", "TGI": "> 100 µM"}
{"compound": "CCCCOC(=O)NC(Nc1ccc(S(=O)(=O)Nc2ncccn2)cc1)(C(F)(F)F)C(F)(F)F", "TGI": "> 100 µM"}
{"compound": "NC(=O)CCc1ccccc1Oc1nccc(-c2c(-c3ccc(F)cc3)ncn2C2CCNCC2)n1", "TGI": "> 25 µM"}
{"compound": "CSC1=C(C#N)C(=O)N(c2ccc(C)cc2)C(=O)C1C#N (configuration not stated)", "TGI": "> 100 µM"}
{"compound": "O=C(/C=C/c1nnc2n(Cc3ccccc3)c(=O)c3c4c(sc3n12)CCCC4)c1ccccc1", "TGI": "1.38 µM"}
{"compound": "c1ccc2cc(CNCCCCNCCCNCc3ccc4ccccc4c3)ccc2c1", "TGI": "3.39 µM"}
{"compound": "COC(=O)[C@]1(C)CCC[C@]2(C)[C@@H](CCC(=O)C(C)C)[C@]3(C=O)O[C@@H]3C[C@H]21", "TGI": "> 100 µM"}
{"compound": "CC(=O)Oc1ccc(Nn2c3ccccc3c3ccccc32)c(C)c1", "TGI": "> 100 µM"}
{"compound": "Cn1c(NCC(CN2CCCC2)OC(=O)c2ccccc2)cc(=O)n(C)c1=O (configuration not stated)", "TGI": "> 100 µM"}
{"compound": "C=CC(=O)NCNC(=O)C=C", "TGI": "> 100 µM"}

Now turn to the next compound.
Qu. What value of TGI has been recorded for this entry: C/C1=C/C[C@@H](/C(C)=C/c2csc(C)n2)OC(=O)C[C@H](O)C(C)(C)C(=O)[C@H](C)[C@@H](O)[C@@H](C)CCC1
Ans. 0.4 µM

----------
Each entry below lists one item and its recorded TGI value.
System: SF-295 CNS
run_description: NCI tumour cell line growth inhibition, 48 h

Below: 4 molecules and their reported TGI.
{"molecule": "O=C(NCCc1ccccc1)c1cc(/C=C/c2cc(O)ccc2O)ccc1O", "TGI": "35.2 µM"}
{"molecule": "O=C([O-])CCc1ccccc1.O=C([O-])CCc1ccccc1.O=C([O-])CCc1ccccc1.O=C([O-])CCc1ccccc1.[Mo+2].[Mo+2]", "TGI": "> 100 µM"}
{"molecule": "COC(=O)[C@]1(C)CCC[C@]2(C)[C@@H](CCC(=O)C(C)C)[C@]3(C=O)O[C@@H]3C[C@H]21", "TGI": "> 100 µM"}
{"molecule": "O=C(O)c1cccc(OCCOc2cccc(C(=O)O)c2[N+](=O)[O-])c1[N+](=O)[O-]", "TGI": "> 100 µM"}

Qu. What value of TGI has been recorded for this entry: COc1cc(/C=C/C(=O)c2ccc(F)cc2)ccc1OCCCCCOc1cc2c(cc1OC)C(=O)N1CCCC1C=N2 (centres undefined)
Ans. < 0.0108 µM

Qu. Would you mind doing CCOc1cc(/C=C/C(=O)C(C(=O)/C=C/c2ccc(OC(=O)CNc3nnc(C)s3)c(OCC)c2)C(=O)CNc2nnc(C)s2)ccc1OC(=O)CNc1nnc(C)s1 as well?
Ans. 10.7 µM

Qu. Would you mind doing C(=N\NC1=NCCN1)/c1cccc2cc3ccncc3nc12 as well?
Ans. 14.5 µM

Qu. Would you mind doing N#Cc1c(-c2ccccc2)cc(-c2cccs2)c(C#N)c1N as well?
Ans. > 100 µM

----------
System: MALME-3M melanoma
run_description: NCI tumour cell line growth inhibition, 48 h
Each entry below lists one item and its recorded TGI value.
Number in µM, nothing else.

Below: 3 molecules and their reported TGI.
{"molecule": "C/C(=N/NC(=S)N1CC2CCC(CC2)C1)c1cnccn1", "tested_system": "MALME-3M melanoma", "property_name": "TGI", "unit_abbrev": "µM", "value": 10.3}
{"molecule": "COc1cc(/C=C/C(=O)c2ccc(F)cc2)ccc1OCCCCCOc1cc2c(cc1OC)C(=O)N1CCCC1C=N2 (configuration not stated)", "tested_system": "MALME-3M melanoma", "property_name": "TGI", "unit_abbrev": "µM", "value": 0.439}
{"molecule": "O=C1/C(=C\\c2ccccc2)CN(C(=O)c2ccccc2)C/C1=C\\c1ccccc1", "tested_system": "MALME-3M melanoma", "property_name": "TGI", "unit_abbrev": "µM", "value": 7.17}

Now turn to the next molecule.
Qu. What value of TGI has been recorded for this entry: Cc1cc(C)c(S(=O)(=O)N(CCCN)OCCON(CCCN)S(=O)(=O)c2c(C)cc(C)cc2C)c(C)c1
Ans. 3.8

----------
Tested on: LOX IMVI melanoma
run_description: NCI tumour cell line growth inhibition, 48 h; in the data active means GI50 below about 0.43 µM; inactive means the rest
Hi! Could you answer with just one of these? Y for active, N for inactive

{"compound": "Cc1cc(C(O)(c2ccc(Nc3ccccc3)cc2)c2ccc(Nc3ccc(S(=O)(=O)O)cc3)cc2)ccc1N (centres undefined)", "tested_system": "LOX IMVI melanoma", "group_label": "N"}
{"compound": "O=C(O)c1cn(C2CC2)c2cc(N3CCN(C(=O)Nc4nc(-c5ccc(Br)cc5)cs4)CC3)c(F)cc2c1=O", "tested_system": "LOX IMVI melanoma", "group_label": "N"}
{"compound": "CCN1C(=O)N(CC)C2C1NC(=S)N2/N=C/C=C/c1ccccc1OC (centres undefined)", "tested_system": "LOX IMVI melanoma", "group_label": "Y"}

Next up:
Qu. Given O=C1c2cccnc2C(=O)c2c1c(C(=O)OCCc1ccccn1)c1ccccn21 , state the outcome it received in this test.
Ans. Y

----------
Test system: SK-MEL-28 melanoma
run_description: NCI tumour cell line growth inhibition, 48 h
Each entry below lists one item and its recorded TGI value.

{"molecule": "CC1(C)SCc2nc3ccccc3n21", "tested_system": "SK-MEL-28 melanoma", "TGI": "> 100 µM"}

Qu. What value of TGI has been recorded for this entry: O=C1C(=C([O-])c2ccccc2)C(=O)c2ccccc21.O=C1C(=C([O-])c2ccccc2)C(=O)c2ccccc21.[Co+2]
Ans. > 100 µM

Qu. Would you mind doing Cc1[nH]c2nc3c(ncn3COCCO)c(=O)n2c1C(c1ccccc1)(c1ccccc1)c1ccccc1 as well?
Ans. 43.5 µM

Qu. Would you mind doing O=Cc1ccc(-c2ccc(-c3ccc(C=O)o3)[se]2)o1 as well?
Ans. > 100 µM

Qu. Would you mind doing O=C(O)c1ccc(C(=O)O)c(C(=O)O)c1.[NH-]C1CCCCC1[NH-].[Pt+2] as well?
Ans. 48.1 µM

Qu. Would you mind doing O=C(N/C=C/C=C/Sc1ccccc1)OCc1ccccc1 as well?
Ans. 34.3 µM

Qu. Would you mind doing N#C/C(=C\c1ccc(F)cc1)n1nc2cccc(F)c2n1 as well?
Ans. > 100 µM

Qu. Would you mind doing OCCCc1cnco1 as well?
Ans. > 100 µM

Qu. Would you mind doing CN1CC=C(c2cccn2C)CC1 as well?
Ans. > 100 µM

Qu. Would you mind doing CC1CCC2CC1NC(=O)CCOCCC(=O)NC2(C)C (stereo not given) as well?
Ans. > 100 µM

Qu. Would you mind doing O=C1CCCC2=C1CC1=C(CCCC1=O)N2c1ccc([N+](=O)[O-])cc1 as well?
Ans. > 100 µM

----------
Test system: A498 renal
run_description: NCI tumour cell line growth inhibition, 48 h; in the data active means GI50 below about 0.43 µM; inactive means the rest
Hi! Could you answer with just one of these? active, inactive

Examples with answers:
{"molecule": "COc1ccc(/C=C/C(=O)c2ccc(Nc3nc(Nc4ccc(F)cc4)nc(Nc4ccc(Cl)cc4)n3)cc2)cc1", "group_label": "inactive"}
{"molecule": "CCCCN(CC)CCCCCCCCCCN1CCCc2cc(OC)ccc21", "group_label": "inactive"}
{"molecule": "Cn1c(NCC(CN2CCCC2)OC(=O)c2ccccc2)cc(=O)n(C)c1=O (centres undefined)", "group_label": "inactive"}

Next up:
Qu. Given CCOC(=O)[C@@H](C)C[C@H](Cc1ccccc1)NC(=O)c1csc([C@@H](C[C@H](C(C)C)N(C)C(=O)[C@@H](NC(=O)[C@H]2C[C@H](O)CCN2C)C(C)C)OC(C)=O)n1 , state the outcome it received in this test.
Ans. active

----------
Tested on: SN12C renal
run_description: NCI tumour cell line growth inhibition, 48 h
Each entry below lists one item and its recorded GI50 value.

{"compound": "COc1cc(/C=C/C(=O)c2ccc(F)cc2)ccc1OCCCCCOc1cc2c(cc1OC)C(=O)N1CCCC1C=N2 (stereo not drawn)", "GI50": "33.5 nM"}
{"compound": "COc1cc2c3c(n(CCCN4CCCNCC4)c(=O)c2cc1OC)-c1cc2c(cc1C3=O)OCO2", "GI50": "239 nM"}

Now turn to the next compound.
Qu. What value of GI50 has been recorded for this entry: O=C1c2cccnc2C(=O)c2c1c(C(=O)OCCc1ccccn1)c1ccccn21
Ans. 26.1 nM
